These data points were gathered from ChEMBL document CHEMBL4266061.

test: Fraction unbound in mouse plasma; type: ADME, cell-free
# fraction unbound listing for each entry below
// no unit, no text: just the number

Using the record for `CC(=O)Nc1cc(-c2[nH]c3cccnc3c2-c2cccc(C(F)F)n2)ccn1` , report its fraction unbound.
0.05

Using the record for `[2H]C([2H])([2H])Oc1ccc(-c2c(-c3ccnc(NC(C)=O)c3)[nH]c3cccnc23)nc1` , report its fraction unbound.
0.12

---

# fraction unbound listing for each entry below
assay: Fraction unbound in human plasma; assay type: ADME, cell-free
// no unit, no text: just the number

Using the record for `CC(=O)Nc1cc(-c2[nH]c3cccnc3c2-c2cccc(C(F)F)n2)ccn1` , report its fraction unbound.
0.09

Using the record for `[2H]C([2H])([2H])Oc1ccc(-c2c(-c3ccnc(NC(C)=O)c3)[nH]c3cccnc23)nc1` , report its fraction unbound.
0.24
